inhibition at 10 µM by entry:
Target: aldose reductase (Rattus norvegicus)
Construct: The crystalline lenses were homogenized in 135 mM sodium-potassium-phosphate buffer (pH 7.0) and centrifuged; from tissue; host or cells: lens of 6 week-old Wistar rats (30,000 rpm supernatant of homogenate)
Test: Determination of Aldose Reductase Activity (In Vitro)
Format: biochemical, rat (Wistar)
Details: Table 3; at the concentration of 10 μM; read-out: Inhibition rate %
Procedure: 6 week-old Wistar rats were sacrificed under ether anesthesia, and immediately lenses were removed and stored at -20° C. The crystalline lenses were homogenized in 135 mM sodium-potassium-phosphate buffer (pH 7.0) and centrifuged for 30 min. at 30,000 rpm. The supernatant was used as an aldose-reductase solution. The above procedure was carried out at 4° C. The enzyme solution was stored at -20° C. […]
Return type: number; implicit unit %.

Some solved entries appear below for comparison.
COc1cc(OC)c2c(=O)cc(Oc3ccc(O)cc3)oc2c1 :: 85.5
COc1c(OC(C)C)cc2oc(Sc3ccc(O)cc3)cc(=O)c2c1OC :: 98.3

Request: Recorded inhibition at 10 µM of COc1c(O)cc2oc(Sc3ccc(O)cc3)cc(=O)c2c1O [Compound (Formula B), reference compound] , please.
Response: 94.5

Request: Recorded inhibition at 10 µM of CCC(CC)Oc1cc2oc(Sc3ccc(O)cc3)cc(=O)c2c(OC)c1OC , please.
Response: 93.2

Request: Recorded inhibition at 10 µM of CCC(CC)Oc1cc2oc(Sc3ccc(O)cc3)cc(=O)c2c(O)c1OC , please.
Response: 96.7

Request: Recorded inhibition at 10 µM of COc1cc(OC)c2c(=O)cc(Sc3ccccc3Cl)oc2c1 , please.
Response: 47.7

---

Molecular target: aldose reductase (Rattus norvegicus, UniProt P07943)
Construct: The crystalline lenses were homogenized in 135 mM sodium-potassium-phosphate buffer (pH 7.0) and centrifuged; from tissue; host or cells: lens of 6 week-old Wistar rats (30,000 rpm supernatant of homogenate)
Experiment: Determination of Aldose Reductase Activity (In Vitro)
Assay type: biochemical, rat (Wistar)
Conditions: Table 3; at the concentration of 10 μM; read-out: Inhibition rate %
observed property: inhibition at 10 µM (%)
Return type: number; implicit unit %.

CCC(C)Oc1cc2oc(Sc3ccc(O)cc3)cc(=O)c2c(OC)c1OC (stereo not shown) :: 100
COc1c(OC(C)=O)cc2oc(Sc3ccc(O)cc3)cc(=O)c2c1O :: 95.4
COc1cc(OC)c2c(=O)cc(Sc3ccccn3)oc2c1 :: 37.4
COc1cc(O)c2c(=O)cc(Sc3ccc(O)cc3)oc2c1 :: 84

Request: Notebook entry, aldose reductase (Rattus norvegicus, UniProt P07943) assay: inhibition at 10 µM of COC(=O)c1ccc(Sc2cc(=O)c3c(OC)cc(OC)cc3o2)cc1 = ?
Response: 23.1

Request: Notebook entry, aldose reductase (Rattus norvegicus, UniProt P07943) assay: inhibition at 10 µM of CC(C)Oc1cc(OC(C)C)c2c(=O)cc(Sc3ccc(O)cc3)oc2c1 = ?
Response: 97.7

Request: Notebook entry, aldose reductase (Rattus norvegicus, UniProt P07943) assay: inhibition at 10 µM of COc1cc(OC)c2c(=O)cc(Sc3ccc(CO)cc3)oc2c1 = ?
Response: 31.5

---

Molecular target: aldose reductase (Rattus norvegicus, UniProt P07943)
Construct: The crystalline lenses were homogenized in 135 mM sodium-potassium-phosphate buffer (pH 7.0) and centrifuged; from tissue; host or cells: lens of 6 week-old Wistar rats (30,000 rpm supernatant of homogenate)
Assay: Determination of Aldose Reductase Activity (In Vitro)
Format: biochemical, rat (Wistar)
Conditions: Table 3; at the concentration of 10 μM; read-out: Inhibition rate %
observed property: inhibition at 10 µM (%)
Return type: number; implicit unit %.

Some solved entries appear below for comparison.
COc1c(O)cc2oc(Oc3ccc(O)cc3)cc(=O)c2c1O [Capillarisin, reference compound] :: 81
COc1c(OC(C)C)cc2oc(Sc3ccc(O)cc3)cc(=O)c2c1OC(C)C :: 93.7

Request: Recorded inhibition at 10 µM of CCOc1c(OC)c(OC(C)C)cc2oc(Sc3ccc(O)cc3)cc(=O)c12 , please.
Response: 98.7

---

Biological target: aldose reductase (Rattus norvegicus, UniProt P07943)
Construct: The crystalline lenses were homogenized in 135 mM sodium-potassium-phosphate buffer (pH 7.0) and centrifuged; from tissue; host or cells: lens of 6 week-old Wistar rats (30,000 rpm supernatant of homogenate)
Experiment: Determination of Aldose Reductase Activity (In Vitro)
Assay type: biochemical, rat (Wistar)
Conditions: Table 3; at the concentration of 10 μM; read-out: Inhibition rate %
inhibition at 10 µM by entry:
Return type: number; implicit unit %.

Some solved entries appear below for comparison.
COc1c(OC(C)=O)cc2oc(Sc3ccc(O)cc3)cc(=O)c2c1OC(C)=O :: 95.4
COc1cc(OC)c2c(=O)cc(Sc3cccc(Cl)c3)oc2c1 :: 44
COc1cc(OC)c2c(=O)cc(Sc3ccccc3OC)oc2c1 :: 28.4
COc1c(OC(C)C)cc2oc(Sc3ccc(O)c(Cl)c3)cc(=O)c2c1OC(C)C :: 69.8
COc1cc(OC)c2c(=O)cc(Sc3ccccc3)oc2c1 :: 52.4

Request: Recorded inhibition at 10 µM of COc1cc2oc(Sc3ccc(O)cc3)cc(=O)c2c(OC)c1OC , please.
Response: 97.3

Request: Recorded inhibition at 10 µM of O=c1cc(SCc2ccc(O)cc2)oc2cc(O)cc(O)c12 , please.
Response: 43.5

Request: Recorded inhibition at 10 µM of COc1ccc(CSc2cc(=O)c3c(OC)cc(OC)cc3o2)cc1 , please.
Response: 16.4

Request: Recorded inhibition at 10 µM of COc1cc2oc(Sc3ccc(O)cc3)cc(=O)c2c(O)c1OC , please.
Response: 87.1

Request: Recorded inhibition at 10 µM of CCCCOc1cc2oc(Sc3ccc(O)cc3)cc(=O)c2c(OCCCC)c1OC , please.
Response: 86.8

Request: Recorded inhibition at 10 µM of COc1c(OC(C)C)cc2oc([S+]([O-])c3ccc(O)cc3)cc(=O)c2c1OC (stereo not drawn) , please.
Response: 98

Request: Recorded inhibition at 10 µM of COc1c(OCC(C)C)cc2oc(Sc3ccc(O)cc3)cc(=O)c2c1OC(C)C , please.
Response: 95.1
